Heads up, these molecules all have AC50 values measured for Cytochrome P450 2D6 (Homo sapiens).

Recorded AC50, per entry:
> print(dat)
                                   molecule      experimental.value
1  COC(=O)C(NC(=O)c1ccc(F)cc1)(Nc1ncc(S(=O)(=O)c2ccc([N+](=O)[O-])cc2)s1)C(F)(F)F (stereo not given)  31.6 µM (inconclusive)
2            Fc1ccc(Nc2ccnc(-c3ccoc3)n2)cc1    20 µM (inconclusive)
3  COc1ccccc1-n1c(SCC(=O)Nc2ccccc2F)nc2nncc-2c1O  8.91 µM (inconclusive)
4  Cn1cccc1C(=O)N1CCC2(CC1)CN(Cc1cc(C(F)(F)F)cc(C(F)(F)F)c1)C2  25.1 µM (inconclusive)
5  CCOC(=O)c1ccc(NC(=NS(=O)(=O)c2ccccc2C)c2ccccc2)cc1  17.8 µM (inconclusive)
6  COc1ccccc1NC(=O)CN1CCC(C(=O)c2ccc(F)cc2)CC1  25.1 µM (inconclusive)
7  COc1ccccc1CNC(=O)c1cc2c(C)nn(Cc3ccc(F)cc3)c2s1  22.4 µM (inconclusive)
8  OC(c1ccccc1)(c1ccc(F)cc1)C(c1ccccc1)N1CCOCC1 (stereo not given)  14.1 µM (inconclusive)
9  C/C(CCN1CCCCc2nc(C)c(C)cc21)=N\OC[C@@H](O)COCc1ccco1  7.94 µM (inconclusive)

For the next question, use this molecule.
QUERY: Return AC50 for the following molecule: CCCCOc1ccc(S(=O)(=O)Nc2cccnc2)cc1
RESULT: 25.1 µM (inconclusive)
